Reference for the values: patent US6407083B1

- Test system: MCF-7 cells from a breast cancer of human origin
- assay-name: Cytotoxicity on MCF-7 cells (MTT viability test)
- Format: cell-based
- assay-conditions: MCF7, 3.125 μM, 24 h

{"molecule": "CC1(C)N[Se]c2c([N+](=O)[O-])cccc21 [Bxt-51062, 3,3-Dimethyl-7-nitrobenzisoselenazoline]", "mortality at 3.125 µM (%)": 70.1}
{"molecule": "CC/C(=C(\\c1ccccc1)c1ccc(OCCN2[Se]c3c([N+](=O)[O-])cccc3C2(C)C)cc1)c1ccccc1 [Bxt-57007]", "mortality at 3.125 µM (%)": 13.3}
{"molecule": "CC1(C)c2cccc([N+](=O)[O-])c2[Se]N1CCO [Bxt-57001]", "mortality at 3.125 µM (%)": 23.9}
{"molecule": "CC(=O)N1[Se]c2c([N+](=O)[O-])cccc2C1(C)C [Bxt-57004]", "mortality at 3.125 µM (%)": 71.2}
